Test system: Trypanosoma brucei
Test: Antiprotozoal activity against Trypanosoma brucei 427 assessed as growth inhibition after 48 hrs by PrestoBlue-based fluorescence assay
Assay type: functional, organism-based
Details: Trypanosoma brucei, 427, 48 h
Answer each item with its documented log10(EC50).
Scale: decimal log of EC50, EC50 in nM.

So, CCS(=O)(=O)Nc1ccc2c(c1)/C(=C(/Nc1ccc(CN3CCOCC3)cc1)c1ccccc1)C(=O)N2 ? Its log10(EC50) was 2.00

Record CCS(=O)(=O)Nc1ccc2c(c1)/C(=C(\C)Nc1ccc(CN3CCCCC3)cc1)C(=O)N2 . Reported log10(EC50): 3.53

Looking up CCS(=O)(=O)Nc1ccc2c(c1)/C(=C(/Nc1ccccc1)c1ccccc1)C(=O)N2 , I see its log10(EC50) listed as 3.16

In plain terms, CC(=O)Nc1ccc2c(c1)/C(=C(/Nc1ccc(CN3CCCCC3)cc1)c1ccccc1)C(=O)N2 has a documented log10(EC50) of 2.18

Value of log10(EC50) reported for the molecule CS(=O)(=O)Nc1ccc2c(c1)/C(=C(/Nc1ccc(CN3CCCCC3)cc1)c1ccccc1)C(=O)N2 is 1.30

Input CCS(=O)(=O)Nc1ccc2c(c1)/C(=C(/Nc1ccc(C)cc1)c1ccccc1)C(=O)N2 . Output log10(EC50): 2.57

Field log10(EC50) (entry O=C1Nc2ccccc2/C1=C(/Nc1ccc(CN2CCCCC2)cc1)c1ccccc1 ) reads 1.85

Lookup result for CCCC/C(Nc1ccc(CN2CCCCC2)cc1)=C1/C(=O)Nc2ccc(NS(=O)(=O)CC)cc21 ; measured log10(EC50): 3.22

log10(EC50) reported for this molecule CC(=O)N1C(=O)/C(=C(\Nc2ccc(CN3CCCCC3)cc2)c2ccccc2)c2cc([N+](=O)[O-])ccc21 : 2.11

Sample CC(=O)N1C(=O)/C(=C(\Nc2ccc(CN3CCCCC3)cc2)c2ccccc2)c2cc(N)ccc21 ; log10(EC50) observed: 3.51

Measured log10(EC50), Nc1ccc2c(c1)/C(=C(/Nc1ccc(CN3CCCCC3)cc1)c1ccccc1)C(=O)N2 : 3.06

Looking up CC/C(Nc1ccc(CN2CCCCC2)cc1)=C1/C(=O)Nc2ccc(NS(=O)(=O)CC)cc21 , I found its log10(EC50) recorded as 3.25

Cc1cc(Nc2cc(N3CCN(C)CC3)nc(Sc3ccc(NC(=O)C4CC4)cc3)n2)n[nH]1 yielded log10(EC50) of 4.00

Sample CCS(=O)(=O)Nc1ccc2c(c1)/C(=C/Nc1ccc(CN3CCCCC3)cc1)C(=O)N2 ; log10(EC50) observed: 3.12

Documented log10(EC50) of CCS(=O)(=O)Nc1ccc2c(c1)/C(=C(/Nc1ccc(N3CCCCC3)cc1)c1ccccc1)C(=O)N2 : 3.18

Given item O=C1Nc2ccc(NS(=O)(=O)c3ccccc3)cc2/C1=C(/Nc1ccc(CN2CCCCC2)cc1)c1ccccc1 , the value recorded as its log10(EC50) is 1.00

Consider CCS(=O)(=O)Nc1ccc2c(c1)/C(=C(/Nc1ccc(CN3CCCCC3)cc1)c1ccccc1)C(=O)N2 . Its measured log10(EC50) is 1.78

----------
Record form. Attribute: CC50 at 48 h. Fill in for each entry.
Assay: Cytotoxicity against human HepG2 cells after 48 hrs by MTT assay
Format: cell-based
Conditions: read-out: TC50
I only need the number, in µM, no unit after it.

Item: CCS(=O)(=O)Nc1ccc2c(c1)/C(=C(/Nc1ccc(CN3CCOCC3)cc1)c1ccccc1)C(=O)N2 | CC50 at 48 h: 1.31

Short answer for Cc1cc(Nc2cc(N3CCN(C)CC3)nc(Sc3ccc(NC(=O)C4CC4)cc3)n2)n[nH]1 : CC50 at 48 h was 3.3

Documented CC50 at 48 h of CC(=O)N1C(=O)/C(=C(\Nc2ccc(CN3CCCCC3)cc2)c2ccccc2)c2cc(N)ccc21 : 1.81

Entry CO[C@@H](C(=O)N1Cc2n[nH]c(NC(=O)c3ccc(N4CCN(C)CC4)cc3)c2C1)c1ccccc1 — recorded CC50 at 48 h = 4

----------
Assay: Cytotoxicity against human HepG2 cells after 48 hrs by MTT assay
Format: cell-based
Conditions: read-out: TC50
Property measured: CC50 at 48 h (µM)
Value expressed in µM; do not type the unit.

Documented CC50 at 48 h of CS(=O)(=O)Nc1ccc2c(c1)/C(=C(/Nc1ccc(CN3CCCCC3)cc1)c1ccccc1)C(=O)N2 : 0.2

Item: CCS(=O)(=O)Nc1ccc2c(c1)/C(=C(/Nc1ccc(C)cc1)c1ccccc1)C(=O)N2 | CC50 at 48 h: 3.1

The recorded CC50 at 48 h for entry CCS(=O)(=O)Nc1ccc2c(c1)/C(=C/Nc1ccc(CN3CCCCC3)cc1)C(=O)N2 equals 5

The recorded CC50 at 48 h for O=C1Nc2ccc(NS(=O)(=O)c3ccccc3)cc2/C1=C(/Nc1ccc(CN2CCCCC2)cc1)c1ccccc1 is 3.29

CC50 at 48 h in this record for CCS(=O)(=O)Nc1ccc2c(c1)/C(=C(/Nc1ccccc1)c1ccccc1)C(=O)N2 : 4.7

----------
Hi there, I'd appreciate the recorded CC50 at 48 h for every entry that follows.
Test: Cytotoxicity against human HepG2 cells after 48 hrs by MTT assay
Assay type: cell-based
Conditions: read-out: TC50

Measured CC50 at 48 h of O=C1Nc2ccccc2/C1=C(/Nc1ccc(CN2CCCCC2)cc1)c1ccccc1 : > 6 µM

The molecule identified as CC(=O)Nc1ccc2c(c1)/C(=C(/Nc1ccc(CN3CCCCC3)cc1)c1ccccc1)C(=O)N2 registered its CC50 at 48 h at > 6 µM

CC50 at 48 h reported for this molecule CCCC/C(Nc1ccc(CN2CCCCC2)cc1)=C1/C(=O)Nc2ccc(NS(=O)(=O)CC)cc21 : > 6 µM

Reported CC50 at 48 h for CCS(=O)(=O)Nc1ccc2c(c1)/C(=C(/NC1CCN(C)CC1)c1ccccc1)C(=O)N2 was > 10 µM

----------
Record form. Attribute: CC50 at 48 h. Fill in for each entry.
Experiment: Cytotoxicity against human HepG2 cells after 48 hrs by MTT assay
Format: cell-based
Settings: read-out: TC50

So for CCS(=O)(=O)Nc1ccc2c(c1)/C(=C(/Nc1ccc(N3CCCCC3)cc1)c1ccccc1)C(=O)N2 , the logged CC50 at 48 h turned out to be > 6 µM

For CC/C(Nc1ccc(CN2CCCCC2)cc1)=C1/C(=O)Nc2ccc(NS(=O)(=O)CC)cc21 the molecule record lists CC50 at 48 h as > 6 µM

Looking up CCS(=O)(=O)Nc1ccc2c(c1)/C(=C(/Nc1ccc(CN3CCCCC3)cc1)c1ccccc1)C(=O)N2 , I found its CC50 at 48 h recorded as < 0.2 µM

GET /value?item= Nc1ccc2c(c1)/C(=C(/Nc1ccc(CN3CCCCC3)cc1)c1ccccc1)C(=O)N2 &field=CC50 at 48 h returns > 6 µM

Reported CC50 at 48 h for CC(=O)N1C(=O)/C(=C(\Nc2ccc(CN3CCCCC3)cc2)c2ccccc2)c2cc([N+](=O)[O-])ccc21 was > 6 µM

Query CCS(=O)(=O)Nc1ccc2c(c1)/C(=C(\C)Nc1ccc(CN3CCCCC3)cc1)C(=O)N2 yields CC50 at 48 h of > 6 µM
